- Tested on: HeLa
- test-details: nucleolar rRNA biogenesis percent inhibition (5-EU; siNT 0%, siPOLR1A 100%); higher = stronger inhibition of nucleolar rRNA biogenesis
- experimental-parameters: 20 nM; 72 h
Binary classification by nucleolar rRNA biogenesis percent inhibition, with 80% as an inclusive lower bound for Fulfilled; all other cases are Not fulfilled.

> print(dat)
                           ordered.residues     class.name
1  AGCUUUUGGGAAUUCAGGUAGU [hsa-miR-3140-3p]  Not fulfilled
2     UGUCCUCUAGGGCCUGCAGUCU [hsa-miR-3909]  Not fulfilled
3     AGGCGGAGACUUGGGCAAUUG [hsa-miR-25-5p]      Fulfilled
4  ACCUUGGCUCUAGACUGCUUACU [hsa-miR-212-5p]      Fulfilled
5   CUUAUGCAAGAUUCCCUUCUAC [hsa-miR-491-3p]  Not fulfilled

====

- System: MCF10A
- test-details: percent viability (nuclei count relative to siNT); higher = more viable cells
- experimental-parameters: 20 nM; 72 h
parameter: percent viability

> print(dat)
                            ordered.residues  result
 1  UAUGGAGUGGACUUUCAGCUGGC [hsa-miR-6514-5p]     75%
 2         UGGGAGCUGGACUACUUC [hsa-miR-4300]   19.7%
 3     AGGUGCUCCAGGCUGGCUCACA [hsa-miR-3907]   4.87%
 4    UUUGUAUGGAUAUGUGUGUGUAU [hsa-miR-3149]   37.6%
 5        ACUGGCCUGGGACUACCGG [hsa-miR-3176]   54.4%
 6   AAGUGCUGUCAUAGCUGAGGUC [hsa-miR-512-3p]   69.7%
 7  CAAGCCUCUCCUGCCCUUCCAG [hsa-miR-7109-3p]   51.1%
 8  AGGGCUGGACUCAGCGGCGGAGCU [hsa-miR-5001-5p]   42.6%
 9       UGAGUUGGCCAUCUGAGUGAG [hsa-miR-571]   84.6%
10       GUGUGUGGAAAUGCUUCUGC [hsa-miR-147a]   18.3%
11  CAUCUGGCAUCCGUCACACAGA [hsa-miR-3126-3p]   9.11%
12  UCGACAGCACGACACUGCCUUC [hsa-miR-196b-3p]   65.2%

====

- System: MCF10A
- test-details: percent viability (nuclei count relative to siNT); higher = more viable cells
- experimental-parameters: 20 nM; 72 h
parameter: percent viability (%)

> print(dat)
                            ordered.residues  numeric.value
 1  UAAAACUUUAAGUGUGCCUAGG [hsa-miR-5582-3p]           72.9
 2  CAGCCAGCCCCUGCUCACCCCU [hsa-miR-6858-3p]           30.6
 3  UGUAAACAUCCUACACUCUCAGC [hsa-miR-30c-5p]           69.4
 4       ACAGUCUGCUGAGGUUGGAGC [hsa-miR-622]           86.2
 5   GCUGGGAUUACAGGCAUGAGCC [hsa-miR-619-5p]             50
 6  AUCUGGAGGUAAGAAGCACUUU [hsa-miR-516b-5p]           61.6
 7   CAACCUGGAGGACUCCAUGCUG [hsa-miR-490-3p]           41.3
 8  GGUGGUUGAGGCUGCAGUAAGU [hsa-miR-1273g-5p]           49.2
 9      AGCCAAGUGGAAGUUACUUUA [hsa-miR-4480]           21.9
10   UUGGAAGCUUGGACCAACUAGCUG [hsa-miR-6079]           31.5
11   CGUGUAUUUGACAAGCUGAGUU [hsa-miR-223-5p]             20

====

Catalogue of sequences with associated one-nucleolus phenotype percent effect
- Tested on: MCF10A
- test-details: one-nucleolus phenotype percent effect, hitpick validation (relative to siNT 0% and siNOL11 100%); higher = more cells with one nucleolus
- experimental-parameters: 20 nM; 72 h
parameter: one-nucleolus phenotype percent effect (%)

> print(dat)
                            ordered.residues  target.entity  numeric.value
 1   UCUCUGGGCCUGUGUCUUAGGC [hsa-miR-330-5p]         MCF10A           99.9
 2  AAGGAGCUUACAAUCUAGCUGGG [hsa-miR-708-5p]         MCF10A            187
 3       AAAAGGCGGGAGAAGCCCCA [hsa-miR-4484]         MCF10A            199
 4  UUCUCCCACUACCAGGCUCCCA [hsa-miR-4713-5p]         MCF10A          -22.9
 5   AGAAGGCACUAUGAGAUUUAGA [hsa-miR-605-3p]         MCF10A            154
 6   UAUGGCACUGGUAGAAUUCACU [hsa-miR-183-5p]         MCF10A            101
 7     UGUCCUCUAGGGCCUGCAGUCU [hsa-miR-3909]         MCF10A            196
 8  UGAAUGGUAAAGCGAUGUCACA [hsa-miR-4790-3p]         MCF10A           78.8
 9   CUGGCGGCUGUGUCUUCACAG [hsa-miR-6770-3p]         MCF10A          -1.66
10   CAGGUCGUCUUGCAGGGCUUCU [hsa-miR-431-3p]         MCF10A            182
11  AGGAGCUAUCCACUCCAGGUGUCC [hsa-miR-6500-5p]         MCF10A            153

====

- Tested on: MCF10A
- test-details: one-nucleolus phenotype percent effect (relative to siNT 0% and siNOL11 100%); higher = more cells with one nucleolus (ribosome biogenesis inhibition)
- experimental-parameters: 20 nM; 72 h
Catalogue of sequences with associated one-nucleolus phenotype percent effect
parameter: one-nucleolus phenotype percent effect

> print(dat)
                            ordered.residues  result
 1  AGACACAUUUGGAGAGGGAACC [hsa-miR-642a-3p]  -16.3%
 2  AUAUACAGGGGGAGACUCUUAU [hsa-miR-1185-1-3p]   9.76%
 3        AGAGCUGGCUGAAGGGCAG [hsa-miR-4487]   25.5%
 4     UUGUGGAUCUCAAGGAUGUGCU [hsa-miR-4752]   43.7%
 5    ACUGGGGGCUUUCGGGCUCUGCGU [hsa-miR-637]   50.5%
 6   UGAUGAUACAGGUGGAGGUAG [hsa-miR-3682-3p]   19.3%
 7  CACCUUUGUGUCCCCAUCCUGCA [hsa-miR-6782-3p]  -13.1%
 8    CAGGGGGACUGGGGGUGAGC [hsa-miR-6794-5p]   5.76%
 9   UGGCUUCUCUUGCACACCCAG [hsa-miR-6815-3p]   62.9%
10   ACUGAUUUCUUUUGGUGUUCAG [hsa-miR-29a-5p]  -23.9%
11  UCACAACAACCUUGCAGGGUAGA [hsa-miR-5003-5p]  -10.6%

====

- Test system: MCF10A
- test-details: one-nucleolus phenotype percent effect (relative to siNT 0% and siNOL11 100%); higher = more cells with one nucleolus (ribosome biogenesis inhibition)
- experimental-parameters: 20 nM; 72 h
parameter: one-nucleolus phenotype percent effect (%)

> print(dat)
                            ordered.residues  target.entity  readout.unit  numeric.value
 1   CAAGCUCGUGUCUGUGGGUCCG [hsa-miR-99b-3p]         MCF10A             %           8.24
 2  CCUCCGUGUUACCUGUCCUCUAG [hsa-miR-3605-3p]         MCF10A             %          0.086
 3  GUGGGUACGGCCCAGUGGGGGG [hsa-miR-1225-5p]         MCF10A             %          -23.1
 4      GUGACAUCACAUAUACGGCAGC [hsa-miR-489]         MCF10A             %           53.7
 5     UGAGGGGUUUGGAAUGGGAUGG [hsa-miR-5194]         MCF10A             %           13.7
 6   UUUCUCUCUCCACUUCCUCAG [hsa-miR-6833-3p]         MCF10A             %          -1.79
 7  UUCCACUGCCACUACCUAAUUU [hsa-miR-6509-3p]         MCF10A             %          -4.11
 8      GUUUCACCAUGUUGGUCAGGC [hsa-miR-5096]         MCF10A             %           21.9
 9  CAGGGAACAGCUGGGUGAGCUGCU [hsa-miR-6750-5p]         MCF10A             %          -6.66
10   UGCGUUUCUCCUCUUGAGCAG [hsa-miR-6854-3p]         MCF10A             %           21.3
11  CCUAUUCUUGAUUACUUGUUUC [hsa-miR-26a-2-3p]         MCF10A             %          -7.71

Each recorded value in this set is attributed to the supplement of paper PMC10899765.
